# tested-on: cyclooxygenase (Rattus norvegicus)
# Construct: microsomal fraction containing lipoxygenase and cyclooxygenase; endogenous in cells; host or cells: RBL-1 (rat basophilic leukemia) cells, homogenate / microsomal fraction
# Sequence (Q63921 27-602): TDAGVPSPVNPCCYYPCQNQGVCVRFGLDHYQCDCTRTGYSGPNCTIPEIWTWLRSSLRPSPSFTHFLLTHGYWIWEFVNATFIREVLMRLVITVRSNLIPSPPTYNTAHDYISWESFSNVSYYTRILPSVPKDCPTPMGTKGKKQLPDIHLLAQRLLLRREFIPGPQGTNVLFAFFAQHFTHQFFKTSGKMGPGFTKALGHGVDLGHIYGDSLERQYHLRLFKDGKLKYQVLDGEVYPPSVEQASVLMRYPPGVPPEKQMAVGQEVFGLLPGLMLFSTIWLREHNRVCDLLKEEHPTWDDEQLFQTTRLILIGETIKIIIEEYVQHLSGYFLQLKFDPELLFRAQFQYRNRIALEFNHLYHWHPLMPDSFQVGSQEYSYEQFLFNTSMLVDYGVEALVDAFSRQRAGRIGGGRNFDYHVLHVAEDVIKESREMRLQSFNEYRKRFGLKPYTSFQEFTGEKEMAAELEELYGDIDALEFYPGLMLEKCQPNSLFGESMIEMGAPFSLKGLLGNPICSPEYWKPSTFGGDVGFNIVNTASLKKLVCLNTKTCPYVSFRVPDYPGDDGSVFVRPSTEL
# protocol: Inhibition of cyclooxygenase derived from rat basophilic leukemia (RBL-1) cells, product C1 (PGD2)
# Format: biochemical
# experimental-conditions: dose of 1 μM, read-out: % Inhibition of cyclooxygenase (C1) formation
Response key: 1.0 means inhibition at 1 µM >= 1%; 0.0 means inhibition at 1 µM < 1%.

{"columns": ["smiles-input", "assigned-class"],
 "data": [
  ["CC(C)NC(=O)c1ccccc1Nc1ccc(O)cc1", 0.0],
  ["COc1ccc(Nc2ccc(O)cc2)c(C(=O)N2CCCCC2)c1", 1.0],
  ["CNC(=O)c1ccccc1Nc1ccc(O)cc1", 1.0],
  ["CCCNC(=O)c1ccccc1Nc1ccc(O)cc1", 1.0],
  ["O=C(c1ccccc1Nc1ccccc1O)N1CCCCC1", 1.0],
  ["O=C(c1ccc(Cl)cc1Nc1ccc(O)cc1)N1CCCC1", 1.0],
  ["CCN(CC)C(=O)c1cc(Cl)ccc1Nc1ccc(O)cc1", 0.0],
  ["COc1ccc(Nc2ccc(O)cc2)c(C(=O)NCc2ccccc2)c1", 0.0],
  ["O=C(c1ccccc1Nc1ccc(O)cc1)N1CCCCC1", 0.0],
  ["CC1CCN(C(=O)c2ccccc2Nc2ccc(O)cc2)CC1", 1.0],
  ["O=C(NCc1ccccc1)c1ccccc1Nc1ccc(O)cc1", 0.0]
]}

====

# tested-on: lipoxygenase (Rattus norvegicus, UniProt P12527)
# Construct: microsomal fraction containing lipoxygenase and cyclooxygenase; endogenous in cells; host or cells: RBL-1 (rat basophilic leukemia) cells, homogenate / microsomal fraction
# Sequence (P12527 whole entry): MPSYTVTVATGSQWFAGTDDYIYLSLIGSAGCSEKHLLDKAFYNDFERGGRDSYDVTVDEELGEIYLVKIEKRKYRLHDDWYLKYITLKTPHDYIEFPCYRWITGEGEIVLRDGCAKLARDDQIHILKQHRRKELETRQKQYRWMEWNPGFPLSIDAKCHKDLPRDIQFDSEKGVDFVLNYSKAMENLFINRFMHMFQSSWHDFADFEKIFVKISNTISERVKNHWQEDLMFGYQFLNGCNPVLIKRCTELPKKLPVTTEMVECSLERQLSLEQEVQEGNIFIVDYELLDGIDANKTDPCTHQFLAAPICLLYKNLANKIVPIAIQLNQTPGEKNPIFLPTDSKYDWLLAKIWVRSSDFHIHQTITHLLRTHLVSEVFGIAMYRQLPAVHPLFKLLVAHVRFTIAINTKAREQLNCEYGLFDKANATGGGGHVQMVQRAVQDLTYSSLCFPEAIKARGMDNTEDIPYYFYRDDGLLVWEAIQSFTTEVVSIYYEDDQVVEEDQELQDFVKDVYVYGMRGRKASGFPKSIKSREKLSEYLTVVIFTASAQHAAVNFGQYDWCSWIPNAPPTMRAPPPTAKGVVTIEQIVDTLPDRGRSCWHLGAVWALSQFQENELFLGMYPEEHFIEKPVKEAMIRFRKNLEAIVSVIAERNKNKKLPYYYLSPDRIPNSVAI
# protocol: Inhibition of lipoxygenase derived from rat basophilic leukemia (RBL-1) cells, products L1 (5,12-di-HETE) and L2 (5-HETE)
# Assay type: biochemical
# experimental-conditions: read-out: % Inhibition of lipoxygenase (L1) formation

{"columns": ["smiles-input", "inhibition at 1 µM / %"],
 "data": [
  ["O=C(NC1CCCCC1)c1ccccc1Nc1ccc(O)cc1", 80],
  ["O=C(c1ccccc1Nc1ccc(O)cc1)N1CCCCC1", 19],
  ["CCCNC(=O)c1ccccc1Nc1ccc(O)cc1", 62],
  ["O=C1C=CC(=Nc2ccccc2C(=O)N2CCCCC2)C=C1", 68],
  ["COc1ccc(Nc2ccc(O)cc2)c(C(=O)NCc2ccccc2)c1", 81]
]}

====

# tested-on: lipoxygenase (Rattus norvegicus, UniProt P12527)
# Construct: microsomal fraction containing lipoxygenase and cyclooxygenase; endogenous in cells; host or cells: RBL-1 (rat basophilic leukemia) cells, homogenate / microsomal fraction
# protocol: Inhibition of lipoxygenase derived from rat basophilic leukemia (RBL-1) cells, products L1 (5,12-di-HETE) and L2 (5-HETE)
# Assay type: biochemical
# experimental-conditions: IC50 L2, L2 = 5-HETE

{"columns": ["compound", "unit-label", "IC50"],
 "data": [
  ["O=C1C=CC(=Nc2ccccc2C(=O)N2CCCCC2)C=C1", "nM", 130],
  ["CCCN(CC)C(=O)c1ccccc1Nc1ccc(O)cc1", "nM", 110],
  ["O=C(NCc1ccccc1)c1ccccc1Nc1ccc(O)cc1", "nM", 40],
  ["CNC(=O)c1ccc(Cl)cc1Nc1ccc(O)cc1", "nM", 180],
  ["COc1ccc(Nc2ccc(O)cc2)c(C(=O)N2CCCCC2)c1", "nM", 610],
  ["O=C(c1ccccc1Nc1ccc(O)cc1)N1CCCCC1", "nM", 600],
  ["COc1ccc(Nc2ccc(O)cc2)c(C(=O)NCc2ccccc2)c1", "nM", 260],
  ["O=C(NC1CCCCC1)c1ccccc1Nc1ccc(O)cc1", "nM", 110],
  ["O=C(c1ccccc1Nc1ccccc1O)N1CCCCC1", "nM", 180],
  ["CCCNC(=O)c1ccccc1Nc1ccc(O)cc1", "nM", 110],
  ["NC(=O)c1ccccc1Nc1ccc(O)cc1 [Example 3(b), 2-(4-Hydroxyphenylamino)benzamide]", "nM", 150]
]}
